Catalogue of pIC50 readings, one per entry.
# Test system: NCI-H460
# experiment-description: Cytotoxicity against human NCI-H460 cells by MTT assay
# Assay type: functional, cell-based
pIC50: −log10 of the molar value.
measure: pIC50

COc1cccc(/C=C/C(=O)c2sc(Nc3cccc(C)c3)nc2C)c1 ... < 4.60
COc1cc(/C=C/C(=O)c2sc(Nc3ccc(C)cc3)nc2C)cc(OC)c1OC ... < 4.60
Cc1ccc(Nc2nc(C)c(C(=O)/C=C/c3ccccc3)s2)cc1 ... < 4.60
Cc1ccc(Nc2nc(C)c(C(=O)/C=C/c3ccc4c(c3)OCO4)s2)cc1 ... < 4.60
Cc1nc(Nc2cccc(Cl)c2)sc1C(=O)/C=C/c1ccc(Cl)cc1 ... < 4.60
COc1ccc(/C=C/C(=O)c2sc(Nc3ccc(Cl)cc3)nc2C)cc1 ... < 4.60
Cc1nc(Nc2ccccc2)sc1C(=O)/C=C/c1ccccc1Cl ... < 4.60
COc1cc(/C=C/C(=O)c2sc(Nc3cccc(C)c3)nc2C)cc(OC)c1OC ... 4.70
Cc1cccc(Nc2nc(C)c(C(=O)/C=C/c3ccc(Cl)cc3)s2)c1 ... < 4.60
COc1cccc(/C=C/C(=O)c2sc(Nc3cccc(Cl)c3)nc2C)c1 ... < 4.60
Cc1nc(Nc2ccc(Cl)cc2)sc1C(=O)/C=C/c1ccc(Cl)cc1 ... < 4.60
Cc1nc(Nc2ccc(Cl)c(Cl)c2)sc1C(=O)/C=C/c1ccccc1 ... 4.64
Cc1nc(Nc2ccc(Cl)c(Cl)c2)sc1C(=O)/C=C/c1ccc2c(c1)OCO2 ... < 4.60
COc1cccc(/C=C/C(=O)c2sc(Nc3ccccc3C)nc2C)c1 ... < 4.60
Cc1nc(Nc2ccc(Cl)cc2)sc1C(=O)/C=C/c1ccccc1 ... < 4.60
COc1cc(/C=C/C(=O)c2sc(Nc3ccccc3)nc2C)cc(OC)c1OC ... < 4.60
COc1cc(/C=C/C(=O)c2sc(Nc3cccc(Cl)c3)nc2C)cc(OC)c1OC ... < 4.60
Cc1cccc(Nc2nc(C)c(C(=O)/C=C/c3ccccc3Cl)s2)c1 ... < 4.60
Cc1ccccc1Nc1nc(C)c(C(=O)/C=C/c2ccccc2Cl)s1 ... < 4.60
Cc1ccc(Nc2nc(C)c(C(=O)/C=C/c3ccccc3Cl)s2)cc1 ... < 4.60
COc1cccc(/C=C/C(=O)c2sc(Nc3ccc(Cl)c(Cl)c3)nc2C)c1 ... 4.70
Cc1nc(Nc2cccc(Cl)c2)sc1C(=O)/C=C/c1ccccc1 ... < 4.60
COc1cc(/C=C/C(=O)c2sc(Nc3ccc(Cl)c(Cl)c3)nc2C)cc(OC)c1OC ... < 4.60
Cc1ccccc1Nc1nc(C)c(C(=O)/C=C/c2ccccc2)s1 ... < 4.60
COc1cccc(/C=C/C(=O)c2sc(Nc3ccc(Cl)cc3)nc2C)c1 ... < 4.60
Cc1nc(Nc2ccccc2)sc1C(=O)/C=C/c1ccccc1 ... < 4.60
COc1cc(/C=C/C(=O)c2sc(Nc3ccc(Cl)cc3)nc2C)cc(OC)c1OC ... 4.66
COc1cc(/C=C/C(=O)c2sc(Nc3ccccc3C)nc2C)cc(OC)c1OC ... 5.20
Cc1cccc(Nc2nc(C)c(C(=O)/C=C/c3ccccc3)s2)c1 ... 4.66
COc1cc(/C=C/C(=O)c2sc(Nc3ccc(F)c(Cl)c3)nc2C)cc(OC)c1OC ... 5.20
Cc1ccc(Nc2nc(C)c(C(=O)/C=C/c3ccc(Cl)cc3)s2)cc1 ... < 4.60
Cc1ccccc1Nc1nc(C)c(C(=O)/C=C/c2ccc(Cl)cc2)s1 ... < 4.60
Cc1nc(Nc2ccc(Cl)c(Cl)c2)sc1C(=O)/C=C/c1ccc(Cl)cc1 ... < 4.60
Cc1nc(Nc2ccccc2)sc1C(=O)/C=C/c1ccc(Cl)cc1 ... < 4.60
COc1cccc(/C=C/C(=O)c2sc(Nc3ccccc3)nc2C)c1 ... < 4.60
COc1ccc(/C=C/C(=O)c2sc(Nc3ccc(Cl)c(Cl)c3)nc2C)cc1 ... < 4.60
COc1cccc(/C=C/C(=O)c2sc(Nc3ccc(C)cc3)nc2C)c1 ... < 4.60
